B1: NEUROD6 (parent)
chain: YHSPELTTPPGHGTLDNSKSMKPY

- Variants of: B1
- measurement protocol: protein stability index of a GFP-peptide fusion (GPS, HEK-293T) (PSI 1-6); higher = more stable;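 further: lentivirally expressed fusions sorted by FACS into six bins by GFP to DsRed ratio, PSI derived from sequencing read proportions per bin multiplied by bin number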
- measurement context: c terminus: a fixed tail appended
measure: protein stability index
No unit in the answer, please; the number alone is enough.

stdin: Complete the entry with protein stability index for YHSPELTTPVGHGTLDNSKSMKPY [P10V]
stdout: 2.33

stdin: Complete the entry with protein stability index for YHSPELTTPPGHGTLDNEKSMKPY [S18E]
stdout: 2.16

stdin: Complete the entry with protein stability index for YHSPELTGPPGHGTLDNSKSMKPY [T8G]
stdout: 2.47

stdin: Complete the entry with protein stability index for IHSPELTTPPGHGTLDNSKSMKPY [Y1I]
stdout: 4.77

stdin: Complete the entry with protein stability index for YHSPELTTFPGHGTLDNSKSMKPY [P9F]
stdout: 1.63

stdin: Complete the entry with protein stability index for YHSPELTTPPGHGTLDNSKSTKPY [M21T]
stdout: 2.67

stdin: Complete the entry with protein stability index for YHSPELTTPPGHGVLDNSKSMKPY [T14V]
stdout: 1.79

Then this variant:
stdin: Complete the entry with protein stability index for YHSEELTTPPGHGTLDNSKSMKPY [P4E]
stdout: 3.36
